tested on: Heat shock protein HSP 90 (rabbit reticulocyte lysate; luciferase refolding); test: HSP90 inhibitors, primary screen, cell lysate, luminescence (AID 1789); details: 3 h, at 5.6 µM;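 note: 0% = DMSO wells and 100% = 60 µM geldanamycin wells; inhibitors lower the luminescence because luciferase stays unfolded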
Hit rate of the full screen: of about 290,000 compounds, about 2,700 (0.93%) were called active.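 Rule for the calls: active = inhibition above the screen-wide mean plus 3 SD, computed separately per campaign (cut at about 16% in these data); inactive = the rest.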 The sample as a whole holds a higher share of actives than the screen did.
Outcomes: active, inactive

1. COc1ccc2cc(S(=O)(=O)Nc3ccccn3)ccc2c1 inactive
2. CCN1CCN(Cc2nc3c(c(=O)n(C)c(=O)n3C)n2CC(=O)c2ccccc2)CC1 inactive
3. O=c1c2ccccc2nc2n1C1(CCCCC1)Cc1ccccc1-2 inactive
4. CN(C)c1ccc(-n2cccc2/C=N/n2cnnc2)cc1 active
5. CN(c1ccc2nc3ccccc3c(=O)n2n1)C1CCCCC1 active
6. CCn1c(CC(=O)Nc2ccccc2C)nnc1SCC(=O)NC1=NCCS1 inactive

* * *

test system: Heat shock protein HSP 90 (rabbit reticulocyte lysate; luciferase refolding); assay: HSP90 inhibitors, primary screen, cell lysate, luminescence (AID 1789); details: 3 h, at 5.6 µM, stronger effect = higher value;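 note: 0% = DMSO wells and 100% = 60 µM geldanamycin wells; inhibitors lower the luminescence because luciferase stays unfolded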
Hit rate of the full screen: of about 290,000 compounds, about 2,700 (0.93%) were called active. What follows is part of a selection rich in actives, with near analogues and random picks from the rest.

COMPOUND	inhibition
CCOC(=O)c1ccccc1NS(=O)(=O)c1c(C)nc2sccn2c1=O	-1.63% (inactive)
COC(=O)c1ccccc1NC(=O)CSc1n[nH]c(-c2ccncc2)n1	-0.92% (inactive)
O=c1ccc(-c2ccc(S(=O)(=O)Nc3ccccc3)o2)n[nH]1	-6.52% (inactive)
Cc1ccccc1OCC(=O)N(Cc1cccc(F)c1)C1CCS(=O)(=O)C1 (centres undefined)	-1.03% (inactive)
Cc1ccc(S(=O)(=O)NCC(=O)N2CCOCCOCCOCCOCC2)cc1	-3.1% (inactive)
COC(=O)c1sc(NC(=S)NC(=O)c2ccc(C)cc2)nc1C	1.68% (inactive)
Cc1nc2ccc(C(=O)N(C)CC3CCCN(CCc4ccc(Cl)cc4)C3)cc2[nH]1 (centres undefined)	-8.86% (inactive)
Cc1cc(C)nc(N2CCC(C(=O)Nc3ccc4c(c3)OCCO4)CC2)n1	0.65% (inactive)
O=C(CSC(=S)N1CCOCC1)c1ccccc1	34.1% (active)
COc1cc(SC)ccc1C(=O)NCCOc1ccccc1Cl	3.08% (inactive)
COC(=O)c1ccc(Nc2ncnc3sccc23)cc1	-0.64% (inactive)
COc1cc(SC)ccc1C(=O)Nc1nc(C)cs1	82.5% (active)
Cc1nc2ccc(C(=O)O)cc2[nH]1	31.3% (active)
COC(=O)c1sc(NC(=O)c2ccc(OC)cc2OC)nc1C	36.3% (active)
N#C/C=C\Oc1ccc(Cl)cc1N	19.9% (active)
COc1ccc(Cl)cc1C(=O)NCC#N	-11.2% (inactive)
CCCCCNC(=O)c1cccnc1SCC(=O)Nc1ccccc1OC	0.66% (inactive)
COc1ccc(Cc2nnc(NC(=O)c3ccc(OC)cc3OC)s2)cc1	-0.32% (inactive)
CC1CN(C(=S)SCC(=O)c2ccccc2)CC(C)O1 (centres undefined)	1.9% (inactive)
COc1cc2ccccc2cc1C(=O)Nc1nc(C)c(C(C)=O)s1	10.7% (inactive)
COc1ccc(/C=N/Nc2nc(-c3ccc(C)cc3)c(C#N)c(=O)[nH]2)cc1	-6.02% (inactive)
O=C(N/N=C/c1ccoc1)c1ccc(Cl)cc1Cl	-0.55% (inactive)
CC(=O)c1ccc(NC(=O)c2cc(-c3cccs3)on2)cc1	-4.55% (inactive)
COc1ccc(CNC(=O)c2ccc3oc(C(C)C)nc3c2)cc1	-4.27% (inactive)

Sourced from PubChem BioAssay AID1789
